Data origin, for the record: the supplement of paper PMC9170038

Each entry below carries its reported apparent KD of K4 kissing-loop reporter.
# Tested on: K4 kissing-loop RNA reporter;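 further: bound reporter read as fluorescence of individual clusters on recovered sequencing chips by microscopy, with normalized cluster intensities fitted with a binding model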
# Method Summary: apparent KD of K4 kissing-loop reporter; higher = weaker reporter binding
# Experimental Conditions: Eterna round: R107; input ligand: tryptophan 2.4 mM
Readout Type: apparent KD of K4 kissing-loop reporter (nM)

1) UAUCUAUGCUCGGCCGCCACUAGGACCGGGAGGUAACUAGUGAUGUUAGUAUCUUCGGCCGCCACUAGGACCGGGAGUGUAGAUA [KL-SSTryp-B17 #DoubleAptamer]    74.6
2) UUUACCAGUGAUGUUGGCCUAGUAUUUACACGAGGACCGGUACGGCCGCCACUCGCAUUAUCGGACUUUGAUAAGCAUAUUAUAU [theeternabot_sameState_KL_Trp_A_28]    199
3) UAUUGAUUGUCAGGAUAUCGUAAACGAGUGAUGUUCGUAUAUUGACGAUAGUCAAUUCUAUCUGAACGAGAAGGGACAUUAUUUA [JR_SSFMNB_Sub009]    308
4) UCGUCCGGAUUACUCGUGGUCAUGGUCGAUACCAGUAGAUUAAUCUACCCUUGGCAGCGACAUGAGUGAUGUUCAUGUGCAAUGA [KL-XTheo-A6 #analogue]    383
5) UGACGUAAAACCGUCGAAUCGCUGUGAGAAGGAGCGGUAAAAUUGCCAGGUAGGUCGCUCACAGCCUCACAGUGAUGUUGUGGGA [Sovetequ]    162
6) UCCUAGGUCUUCAGGCGAAAGCCCUGCGAAGGAGCGUGCGAAAGCACAGGUAGGUCGCGCAGUGAUGUUGCACCUAGGUAAUAAA [#SwitchBubble 21 #K4Late]    140
7) GGCGGCCGCGCGUAAGCGCGGCCGGCCGAUACCAGCGCGACGGCGCGCCCUUGGCAGCGGCGCCGAGUGAUGUUCGGCCUGCCGG [#2 Same State - Theophylline A Attempt #17 (HarryS)]    596
8) GGGAAGAAGGCGGCCGCCACUGCAGAAGAGACAGAGAGAGAAGAAGAGGAGUGAUGUUCCAAGAACAGGACCGGGCCAAGAAGGG [whbob_SS_Tryp_B_t28]    129
9) ACAGGAUCGAAGAUCCUGAGCAGUCAGGUCCGAGGACCGGUACGGCCGCCACUCGGAGUGAUGUUCCGAAGACUGCAAAAUAAAA [#SwitchBubble 4]    338
10) AUUUUUUACAGAAGGAGCGUGUUUUUAUAAUCAUUUAUCUUAGCGAGUGAUGUUCGCUUUACACAGGUAGGUCGCUGUUUAUUUA [JR_Nu_ExcArginiB_Sub028]    85.7
11) UUUCUACCGGGAAGGAGCGUGAAUGAUAAUGGAUAUAGUGAUGUUAUAUAUAAGAACGAAUCGCAGGUAGGUCGCCCGGAUGACU [SSArgB.S]    310

* * *

Each entry below carries its reported apparent KD of MS2 coat protein.
# Tested on: MS2 coat protein
# Method Summary: apparent KD of MS2 coat protein; higher = weaker reporter binding
# Experimental Conditions: Eterna round: R107; input ligand: theophylline 2 mM
Readout Type: apparent KD of MS2 coat protein (nM)

1. ACACAUGAGGAUCACCCAUGUGCGCUGGAAGGAGCGCAGAAUCAUGCAGGUAGGUCGCCAGUGCCCUUCGAUAAAGGGAAAAGAG [Erbienes]    106
2. UGGCGAGAAGGAAGGAGCGUCAGCUGAGUUACAUGAGGAUCACCCAUGUUUUACAUUGUGUGACAGGUAGGUCGCCUUCUGCCCU [SS-ArgB20]    16.9
3. AACAUGAGGAUCACCCAUGUCCCAUGUGAACGAGGACCGGUACGGCCGCCACUCGACCGAGGCGGCACAUGAGGAUCACCCGCAU [whbob_SS_trypto A_2s14]    682
4. UGGUAUGUAGGAAGGAGCGCAUACUUCACAUGAGGAUCACCCAUGUCAAGACGUGAGUCAGUGCAGGUAGGUCGCCUAGUUAUGA [Same State - Arginine B (Freestyle 21)]    36.1
